# System: CCRIS mutagenicity, Ames/micronucleus/aberration tests
# ASSAY_NOTES: CCRIS mutagenicity studies
# TEST_CONTEXT: Test System: AMES SALMONELLA TYPHIMURIUM; Strain/Indicator: TA1535; Metabolic Activation: HAMSTER, LIVER, S-9, AROCLOR 1254; Method: STANDARD PLATE
Calls of active or inactive are those of the source. No rule for the calls is given here.
Outcome codes: active, inactive

>>> class_assignment("O=C1c2ccccc2-c2ccccc21")
"inactive"
>>> class_assignment("CC1(C)C(=O)[C@]2(C)CC[C@H]1C2")
"inactive"
>>> class_assignment("C[Si](C)(C)O[Si](C)(C)O[Si](C)(C)C")
"inactive"
>>> class_assignment("C=C(C)C(=O)OCC(CC)(COC(=O)C(=C)C)COC(=O)C(=C)C")
"active"
>>> class_assignment("CCCCC/C=C/C=C/C=O")
"inactive"
>>> class_assignment("c1cnccn1")
"inactive"
>>> class_assignment("O=c1c(O)c(-c2ccc(O)cc2)oc2cc(O)cc(O)c12")
"inactive"
>>> class_assignment("O=C(O)c1ccccn1")
"inactive"
>>> class_assignment("N#CSCSC#N")
"inactive"
>>> class_assignment("O=C(O)/C=C/c1ccccc1")
"inactive"
>>> class_assignment("FC(F)(F)c1ccc(Cl)cc1")
"inactive"
>>> class_assignment("O=C1N=NC(=O)C2C=CC=CC12 (centres undefined)")
"inactive"
>>> class_assignment("CC/C(=C(\\c1ccccc1)c1ccc(OCCN(C)C)cc1)c1ccccc1")
"inactive"
>>> class_assignment("COc1cc(-c2ccc(N=C=O)c(OC)c2)ccc1N=C=O")
"inactive"

###

# System: CCRIS mutagenicity, Ames/micronucleus/aberration tests
# ASSAY_NOTES: CCRIS mutagenicity studies
# TEST_CONTEXT: Test System: AMES SALMONELLA TYPHIMURIUM; Strain/Indicator: TA100; Metabolic Activation: NONE; Method: PREINCUBATION
Activity calls are given as the source filed them. How the calls were made is not given here.
Outcome codes: TRUE = active, FALSE = inactive

>>> class_assignment("COc1c(CO)c(O)cc2c1C(=O)c1ccccc1C2=O")
"TRUE"
>>> class_assignment("CCN1CCN(C(=O)N[C@@H](C(=O)N[C@@H]2C(=O)N3[C@@H]2SC(C)(C)[C@@H]3C(=O)O)c2ccccc2)C(=O)C1=O")
"FALSE"
>>> class_assignment("Clc1nc(Cl)nc(Nc2ccccc2Cl)n1")
"FALSE"
>>> class_assignment("CCC(=O)O")
"FALSE"
>>> class_assignment("ClC1OC1CBr (stereo unspecified)")
"TRUE"
>>> class_assignment("O=C(O)C1C(C(=O)O)C2(Cl)C(Cl)=C(Cl)C1(Cl)C2(Cl)Cl (stereo unspecified)")
"FALSE"
>>> class_assignment("O=C(O)CCC(=O)OC[C@@H](NC(=O)C(Cl)Cl)[C@H](O)c1ccc([N+](=O)[O-])cc1")
"FALSE"
>>> class_assignment("CC(=O)O[C@@H]1[C@@H](O)[C@H]2O[C@@H]3C=C(C)C(=O)[C@@H](O)[C@]3(CO)[C@]1(C)[C@]21CO1")
"FALSE"
>>> class_assignment("Cc1cc(C(C)(C)C)c(O)c(C(C)(C)C)c1")
"FALSE"
>>> class_assignment("O=Cc1c(Cl)cccc1Cl")
"FALSE"
>>> class_assignment("Cc1c2ccccc2cc2c3c(ccc12)C(O)C(O)[C@@H]1O[C@@H]31 (stereo partly specified)")
"TRUE"
>>> class_assignment("ClC1C(Br)C(Br)C(Br)C(Br)C1Br (stereo unspecified)")
"FALSE"
>>> class_assignment("ClC(Cl)c1ccccc1")
"TRUE"
>>> class_assignment("O=[N+]([O-])c1ccc(Cl)cc1Cl")
"TRUE"
>>> class_assignment("O=C(O)CBr")
"TRUE"
>>> class_assignment("Nc1cc(Cl)ccc1O")
"FALSE"
>>> class_assignment("C=C(C)[C@H]1CC=C(C)C(=O)C1")
"FALSE"
>>> class_assignment("CSCCC=O")
"FALSE"
>>> class_assignment("CCCCOCCOCCO")
"FALSE"
>>> class_assignment("Cc1ccccc1C(N)=O")
"FALSE"
>>> class_assignment("O=C(O)C1=NN(c2ccc(S(=O)(=O)O)cc2)C(=O)C1N=Nc1ccc(S(=O)(=O)O)cc1.[Al] (stereo unspecified)")
"FALSE"
>>> class_assignment("CC(=O)c1cc(NC(N)=O)ccc1OCC(O)CNC(C)(C)C (stereo unspecified)")
"FALSE"
>>> class_assignment("Cc1[nH]c(=O)c(C#N)cc1-c1ccncc1")
"FALSE"
>>> class_assignment("[Cl-].[Cl-].[NH2-].[NH2-].[NH2-].[NH2-].[Pt+2]")
"FALSE"
>>> class_assignment("CNC(=O)c1cccc(NCC(=O)NCCc2ccc(OC)c(OC)c2)c1")
"FALSE"
>>> class_assignment("O=[N+]([O-])c1ccccc1Br")
"FALSE"
>>> class_assignment("CCc1c(Br)c(Br)c(Br)c(Br)c1Br")
"FALSE"
>>> class_assignment("CCCCOP(=O)(OCCCC)Oc1ccccc1")
"FALSE"
>>> class_assignment("Cc1c[nH]c2ccccc12")
"FALSE"
>>> class_assignment("O=C1c2ccccc2C(=O)c2c1cc(O[C@@H]1O[C@H](CO[C@@H]3OC[C@@H](O)[C@H](O)[C@H]3O)[C@@H](O)[C@H](O)[C@H]1O)c(CO)c2O")
"TRUE"
>>> class_assignment("COc1ccc(Cc2cnc(N)nc2N)cc1OC")
"FALSE"
>>> class_assignment("ClCc1c2ccccc2cc2ccccc12")
"TRUE"
>>> class_assignment("CCNc1ccccc1")
"FALSE"
>>> class_assignment("CC(=O)Nc1ccc(N)cc1")
"FALSE"
>>> class_assignment("O=[N+]([O-])c1ccc(F)c([N+](=O)[O-])c1")
"TRUE"
>>> class_assignment("CC(C)S(=O)(=O)Cl")
"TRUE"
>>> class_assignment("O=C(O)COc1ccccc1")
"FALSE"
>>> class_assignment("O=C(OCC1CO1)C1CCCCC1C(=O)OCC1CO1 (stereo unspecified)")
"TRUE"
>>> class_assignment("CCOC(=O)OCC")
"FALSE"
>>> class_assignment("CC(O)C#N (stereo unspecified)")
"FALSE"
>>> class_assignment("N")
"FALSE"
>>> class_assignment("O=C1CCCCCCCCCCCC(=O)OCCO1")
"FALSE"
>>> class_assignment("O[C@H]1[C@H]2O[C@H]2c2c(ccc3cc4c(ccc5ccccc54)nc23)[C@@H]1O")
"TRUE"
>>> class_assignment("N#CCCC(=O)/C=C/c1ccc(C(=O)O)cc1")
"FALSE"
>>> class_assignment("Cc1ccc(N)cc1C")
"FALSE"
>>> class_assignment("CCC(Cl)C(Cl)C(Cl)CC(Cl)C(Cl)C(C)Cl (stereo unspecified)")
"FALSE"
>>> class_assignment("CC(c1ccccc1)N(C)C (stereo unspecified)")
"FALSE"
>>> class_assignment("C=CCNCC=C")
"FALSE"
>>> class_assignment("CC1=CC(=C(c2ccc(N)cc2)c2ccc(N)cc2)C=CC1=N")
"FALSE"
>>> class_assignment("CCOc1ccccc1N")
"FALSE"
>>> class_assignment("OCC(CBr)(CBr)CBr")
"FALSE"
>>> class_assignment("Cc1c(O)cc2c(c1O)C(=O)c1cccc(O)c1C2=O")
"FALSE"
>>> class_assignment("C=CC(=O)OCC(C)C")
"FALSE"
>>> class_assignment("CC1=NCCc2c1[nH]c1cc(O)ccc21")
"FALSE"
>>> class_assignment("NC(=O)N(CCCC(=O)O)N=O")
"TRUE"
>>> class_assignment("COc1c(Cl)c(Cl)c(Cl)c(Cl)c1Cl")
"FALSE"
